Experiment Description: NCI Yeast Anticancer Drug Screen. Data for the sgs1 mgt1 strain (AID 161);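 also: 0% = growth of cultures given vehicle only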
Condition Info: S. cerevisiae sgs1 mgt1 strain, at 50.0 µM (retest, dose inferred, filed as 5.0), stronger effect = higher value
Experimental: Growth inhibition of yeast strains with defined genetic alterations is measured as a screen for potential anti-cancer activity. Selected strains with alterations in DNA damage repair or cell cycle control were exposed to compounds and growth inhibition was measured relative to vehicle treated controls. The strain used in this assay is sgs1 mgt1
About 79,000 compounds went through this panel and 15% of them were active in at least one assay; those are over-represented in the sample as a whole.
Tag: label 1 if measured growth inhibition is not below 40%, label 0 if it is.

{"Compound": "C[C@H](CCC(=O)O)[C@H]1CC[C@H]2[C@@H]3[C@H](O)C[C@@H]4C[C@H](O)CC[C@]4(C)[C@H]3CC[C@]12C", "Group": "label 1"}
{"Compound": "CC(=O)Nc1nc(N)c2ncn(C3OC(C(O)CO)C(O)C3O)c2n1 (stereo not drawn)", "Group": "label 0"}
{"Compound": "O=P(C(=S)NC1CC2C=CC1C2)(c1ccccc1)c1ccccc1 (stereo not drawn)", "Group": "label 1"}
{"Compound": "COc1cc2c(cc1OC)C(Cc1c3ccccc3cc3ccccc13)N(C)CC2 (stereo not drawn)", "Group": "label 1"}
{"Compound": "Cc1n(Cc2ccccc2)c2c([n+]1C)C(=O)c1ccccc1C2=O", "Group": "label 1"}
{"Compound": "O=C(Nc1ccc(Cl)cc1)c1ccccc1O", "Group": "label 0"}
{"Compound": "COC(=O)[C@]1(C)CCC[C@]2(C)c3ccc(C(C)C)cc3CC[C@@H]12", "Group": "label 1"}
{"Compound": "CC(C)(S)C(N)C(=O)O (stereo not drawn)", "Group": "label 0"}
{"Compound": "O=C1OC(c2cccnc2)OC(c2ccccc2)=C1C(=O)c1ccccc1 (stereo not drawn)", "Group": "label 1"}
{"Compound": "CC(=O)NC1CCC(C2CCCCC2)CC1C1CCCCC1 (stereo not drawn)", "Group": "label 1"}
{"Compound": "Nc1ncnc2c1ncn2C1SC(CO)C(O)C1O (stereo not drawn)", "Group": "label 0"}
{"Compound": "CC1=C(C(=O)Nc2c(C)cccc2C)C(c2ccc3c(c2)OCO3)C(C(=O)Nc2c(C)cccc2C)=C(C)N1", "Group": "label 0"}
{"Compound": "N#CC(=C1C=CC(=NOC(=O)Nc2cccc3ccccc23)C=C1)c1ccccc1", "Group": "label 1"}
{"Compound": "Cc1noc(-c2ccc([N+](=O)[O-])o2)n1", "Group": "label 1"}
{"Compound": "C1=C(c2ccccc2)N(CCc2ccccc2)C(c2ccccc2)=CN1Cc1ccccc1", "Group": "label 1"}
{"Compound": "O=C(NNc1ccnc2cc(Cl)ccc12)/C(=C/c1ccc2c(c1)OCO2)NC(=O)c1ccccc1", "Group": "label 1"}
{"Compound": "COC1/C=C\\C=C(/C)C(=O)Nc2cc3nc4ccc(Br)cc4oc-3c(c2=O)CC(C)CC(OC)C(O)C(C)/C=C(\\C)C1OC(N)=O (stereo not drawn)", "Group": "label 1"}
{"Compound": "CCCCCCC(C)CC(CCCCCC)NCCOC(=O)c1ccc([N+](=O)[O-])cc1 (stereo not drawn)", "Group": "label 1"}
{"Compound": "Cc1ccccc1N=Nc1ccc(N=Nc2ccc(N)nc2N)c(C)c1", "Group": "label 0"}
{"Compound": "Cc1cccc2c1Oc1cc(Cl)ccc1C2NC(=O)CCN1CCCCC1 (stereo not drawn)", "Group": "label 0"}
{"Compound": "c1ccc(-c2nc3ccccc3[nH]2)cc1", "Group": "label 0"}
{"Compound": "CC(=O)OC1OC(CI)C(OC(C)=O)C(OC(C)=O)C1OC(C)=O (stereo not drawn)", "Group": "label 0"}

---

Experiment Description: NCI Yeast Anticancer Drug Screen. Data for the mec2-1 strain (AID 157)
Condition Info: S. cerevisiae mec2-1 strain, at 50.0 µM (retest, dose inferred, filed as 5.0)
The panel holds about 79,000 compounds, 15% with a hit somewhere; the sample as a whole holds those more often. Active and inactive are the calls of the source. Cut-off read from the data, not from the text of the source: active = growth inhibition above about 70%; inactive = the rest.
Outcome codes: active, inactive

{"Smiles Text": "Cc1cc(=O)[nH]c2ccc(Cc3ccc(N)cc3)cc12", "Group": "inactive"}
{"Smiles Text": "CC(=O)Oc1ccc2c(c1)Oc1cc(OC(C)=O)ccc1C21OC(=O)c2ccccc21", "Group": "inactive"}
{"Smiles Text": "COc1cc2c(cc1O)C1CN(C2)Cc2cc(OC)c(O)cc21", "Group": "active"}
{"Smiles Text": "Fc1ccc(NC(=S)SCc2ccc3c(c2)OCO3)cc1", "Group": "active"}
{"Smiles Text": "O=C(C(=Cc1ccccc1)C(=O)c1ccccc1)c1ccccc1", "Group": "active"}
{"Smiles Text": "OC1(C2C=CC=C2)c2ccccc2C=Cc2ccccc21", "Group": "inactive"}
{"Smiles Text": "Nc1ccc2c(n1)NCC/C2=N\\Nc1ccccc1", "Group": "inactive"}
{"Smiles Text": "COC(=O)[C@]1(C)CCC[C@]2(C)c3ccc(C(C)C)cc3CC[C@@H]12", "Group": "active"}
{"Smiles Text": "Cc1nnc(S(=O)(=O)c2ccc(N=Nc3c(N)nc(N)nc3N)cc2)s1", "Group": "inactive"}
{"Smiles Text": "CC(=O)OCC(=O)[C@H]1CC[C@H]2[C@@H]3CC=C4C[C@@H](O)CC[C@]4(C)[C@H]3CC[C@]12C", "Group": "active"}
{"Smiles Text": "Nc1ncnc2c1ncn2CCCl", "Group": "inactive"}
{"Smiles Text": "CC(=O)Oc1cccc2cccnc12", "Group": "active"}

---

Experiment Description: NCI Yeast Anticancer Drug Screen. Data for the sgs1 mgt1 strain (AID 161);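 also: 0% = growth of cultures given vehicle only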
Condition Info: S. cerevisiae sgs1 mgt1 strain, at 50.0 µM (retest, dose inferred, filed as 5.0), stronger effect = higher value
The panel holds about 79,000 compounds, 15% with a hit somewhere; the sample as a whole holds those more often.
# cutoff 40% applies to growth inhibition; >= gives true (1), < gives false (0)

{"Compound": "CC(NC(=O)/C(C#N)=C/c1ccc2[nH]ccc2c1)c1ccccc1 (stereo not given)", "Group": "true (1)"}
{"Compound": "CC(c1ccccc1)c1ccc(O)cc1 (stereo not given)", "Group": "true (1)"}
{"Compound": "Fc1cccc(CSC(=S)Nc2ccc(F)c(F)c2)c1", "Group": "true (1)"}
{"Compound": "c1ccc([P+](CCCCCCCC[P+](c2ccccc2)(c2ccccc2)c2ccccc2)(c2ccccc2)c2ccccc2)cc1", "Group": "true (1)"}
{"Compound": "C=CCC(O)c1ccc(C(C)C)cc1 (stereo not given)", "Group": "false (0)"}
{"Compound": "CCCn1cnc2c(SCc3ccc(Cl)cc3)nc(N)nc21", "Group": "false (0)"}
{"Compound": "COc1ccc(/C=C/NC=O)cc1", "Group": "false (0)"}
{"Compound": "COC(=O)C1=COC(C)C2C[n+]3ccc4c([nH]c5ccccc54)c3CC12 (stereo not given)", "Group": "false (0)"}
{"Compound": "CC1=CC(C)=Nc2ccc(Cl)cc2N1", "Group": "false (0)"}
{"Compound": "COC1/C=C/OC2(C)Oc3c(C)c(O)c4c(c3C2=O)C(=O)C=C(NC(=O)/C(C)=C\\C=C\\C(C)C2OC(C)(C)OC(C2C)C(C)C(OC(C)=O)C1C)C4=O (stereo not given)", "Group": "true (1)"}
{"Compound": "CCN(CC)CCNc1n[n+]([O-])c2cc([N+](=O)[O-])ccc2[n+]1[O-]", "Group": "true (1)"}
{"Compound": "O=[N+]([O-])c1cc([N+](=O)[O-])c2ccccc2c1NS(=O)(=O)/C=C/c1ccccc1", "Group": "true (1)"}
{"Compound": "CC(=O)Nc1cc(C)ccc1C", "Group": "false (0)"}
{"Compound": "CCOC(=O)C1=C(C(=O)c2ccc(OC)cc2)C(c2c(Cl)cccc2Cl)C(C(=O)c2ccc(OC)cc2)=C(C(=O)OCC)N1", "Group": "false (0)"}
{"Compound": "CCCCCCCc1c(Cl)nc(Cl)nc1Cl", "Group": "true (1)"}
{"Compound": "C[Si]1(C)CN(CCN)C[Si](C)(C)O1", "Group": "false (0)"}
{"Compound": "OCC(O)C(O)C(O)C(/C=N/Nc1ccccc1)=N/Nc1ccccc1 (stereo not given)", "Group": "false (0)"}
{"Compound": "CN(C)C(=S)SC(=S)N(C)C", "Group": "true (1)"}
{"Compound": "Cc1nnc(S(=O)(=O)c2ccc(N=Nc3c(N)nc(N)nc3N)cc2)s1", "Group": "false (0)"}
{"Compound": "CCOC(=O)/C(C#N)=C\\c1ccc([N+](=O)[O-])o1", "Group": "true (1)"}

---

Experiment Description: NCI Yeast Anticancer Drug Screen. Data for the mlh1 rad18 strain (AID 175)
Condition Info: S. cerevisiae mlh1 rad18 strain growth inhibition; at 50.0 µM (retest, dose inferred, filed as 5.0); stronger effect = higher value
About 79,000 compounds went through this panel and 15% of them were active in at least one assay; those are over-represented in the sample as a whole.

{"Molecule": "C=CCN(CC=C)C(CC(=O)C(C)(C)C)=NCC", "growth inhibition [%]": 1}
{"Molecule": "COc1ccc(CC(=O)c2ccc(O)cc2O)cc1", "growth inhibition [%]": 97}
{"Molecule": "CC(=O)OC(c1ccccc1)c1ccc(Cl)cc1 (configuration not stated)", "growth inhibition [%]": -1}
{"Molecule": "C1=C(c2ccccc2)N(CCc2ccccc2)C(c2ccccc2)=CN1Cc1ccccc1", "growth inhibition [%]": 97}
{"Molecule": "O=C(O)COc1ccc(OCC(=O)O)cc1", "growth inhibition [%]": 1}
{"Molecule": "CCCCCCC(C(=O)OCC)N1C(=O)c2ccccc2S1(=O)=O (configuration not stated)", "growth inhibition [%]": 36}
{"Molecule": "CCN(CC)CCCn1c2cc(=O)c(=O)cc-2[nH]c2cc(C)ccc21", "growth inhibition [%]": 52}
{"Molecule": "Cc1ccc(NCCN(C)C)c2c(=O)c3cc(O)ccc3sc12", "growth inhibition [%]": 99}
{"Molecule": "CC1=C(C(=O)Nc2c(C)cccc2C)C(c2ccc3c(c2)OCO3)C(C(=O)Nc2c(C)cccc2C)=C(C)N1", "growth inhibition [%]": 7}
{"Molecule": "OC1CCC(O)CC1 (configuration not stated)", "growth inhibition [%]": 10}
{"Molecule": "Cc1cc(O)c(C(C)C)cc1Cl", "growth inhibition [%]": 84}
{"Molecule": "Oc1ccc2ccccc2c1Cc1c(O)ccc2ccccc12", "growth inhibition [%]": 89}
{"Molecule": "CS(=O)(=O)OC1CC(n2ccc(=O)[nH]c2=O)OC1COC(c1ccccc1)(c1ccccc1)c1ccccc1 (configuration not stated)", "growth inhibition [%]": 97}
{"Molecule": "CCN(CCO)CCNc1ccc(C)c2sc3ccccc3c(=O)c12", "growth inhibition [%]": 98}
{"Molecule": "O=[N+]([O-])c1cc2c(cc1S(=O)(=O)O)C1C(C3C2C2(Cl)C(Cl)=C(Cl)C3(Cl)C2(Cl)Cl)C2(Cl)C(Cl)=C(Cl)C1(Cl)C2(Cl)Cl (configuration not stated)", "growth inhibition [%]": 57}
{"Molecule": "Cc1cc(NS(=O)(=O)c2ccc(N=Nc3cc(N=Nc4ccc(S(=O)(=O)Nc5cc(C)nc(C)n5)cc4)c4c(NC(=O)C(Cl)Cl)cccc4c3OC(=O)C(Cl)Cl)cc2)nc(C)n1 (tested in a mixture with another compound)", "growth inhibition [%]": 70}
{"Molecule": "C[N+]1(Cc2ccc(Cl)c(Cl)c2)CCCC1C1CCCN(Cc2ccc(Cl)c(Cl)c2)C1 (configuration not stated)", "growth inhibition [%]": 76}
{"Molecule": "COc1cccc2c1C(=O)c1c(O)c3c(c(O)c1C2=O)C[C@@](O)(C(C)=O)C[C@@H]3OC1CC(N)C(O)C(C)O1 (some centres not stated)", "growth inhibition [%]": 88}
{"Molecule": "Cc1c(N)nc(C(CC(N)=O)NCC(N)C(N)=O)nc1C(=O)NC(C(=O)NC(C)C(O)C(C)C(=O)NC(C(=O)NCCc1nc(-c2nc(C(=O)NCCCNCCCCN)cs2)cs1)C(C)O)C(OC1OC(CO)C(O)C(O)C1OC1OC(CO)C(O)C(OC(N)=O)C1O)c1cnc[nH]1 (configuration not stated)", "growth inhibition [%]": 98}
{"Molecule": "COC(O)C(=O)c1c2c(cc3c1CCC3)CCCC2 (configuration not stated)", "growth inhibition [%]": 100}
{"Molecule": "c1ccc2c(c1)CNc1ccccc1-2", "growth inhibition [%]": 45}
{"Molecule": "O=Cc1cc([N+](=O)[O-])ccc1O.[Eu]", "growth inhibition [%]": 64}
{"Molecule": "CCO/C(=C\\C=O)C1CCC2C3CC=C4CC(OC(C)=O)CCC4(C)C3CCC12C (configuration not stated)", "growth inhibition [%]": 94}
{"Molecule": "O=[N+]([O-])C(/C=C(\\Cl)[N+](=O)[O-])=C(Nc1ccccc1)Nc1ccccc1", "growth inhibition [%]": 99}
{"Molecule": "Nc1ccc(Cc2ccc(Br)cc2)cc1", "growth inhibition [%]": 98}
{"Molecule": "CCCCCCCCCCCCc1ccc(S(=O)(=O)O)cc1.[Cu+2]", "growth inhibition [%]": 93}
{"Molecule": "CCN(CC)CCNc1n[n+]([O-])c2cc([N+](=O)[O-])ccc2[n+]1[O-]", "growth inhibition [%]": 85}
